Recorded values, source the supplement of paper PMC11061612.

Form field: Bliss excess (one value per entry).
tested on: VMRC-LCD (Lung Adenocarcinoma); assay: Bliss excess, mean over the matrix (fraction); higher = more synergy;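 also: after 72 h of two-drug dosing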
// no unit string in output, number only

Query Bliss excess on VMRC-LCD (Lung Adenocarcinoma) for NC1(C(=O)N[C@@H](CCO)c2ccc(Cl)cc2)CCN(c2ncnc3[nH]ccc23)CC1 [Capivasertib] + CC(=O)c1c(C)c2cnc(Nc3ccc(N4CCNCC4)cn3)nc2n(C2CCCC2)c1=O [Palbociclib] (first compound max 10 µM, 7x7, partner max 10 µM) -0.0153

Query Bliss excess on VMRC-LCD (Lung Adenocarcinoma) for COc1cc2ncnc(Nc3ccc(F)c(Cl)c3)c2cc1OCCCN1CCOCC1 [Gefitinib] + CC(C)n1c(=O)n(C)c2cnc3cc(F)c(-c4ccc(OCCCN5CCCCC5)nc4)cc3c21 [AZD1390] (first compound max 10 µM, 7x7, partner max 0.3 µM) -0.0405

Query Bliss excess on VMRC-LCD (Lung Adenocarcinoma) for COc1nnc2ccc(N3CCC(c4ccc(OCCN5CCN(C)C(=O)[C@H]5C)cc4)CC3)nn12 [AZD5153] + CC1(C)CCC(CN2CCN(c3ccc(C(=O)NS(=O)(=O)c4ccc(NCC5CCOCC5)c([N+](=O)[O-])c4)c(Oc4cnc5[nH]ccc5c4)c3)CC2)=C(c2ccc(Cl)cc2)C1 [Venetoclax] (first compound max 1 µM, 7x7, partner max 1 µM) -0.063
